Study the reported IC50 values for Apoptosis regulator Bcl-2 (Homo sapiens, UniProt P10415) given below; they originate from different publications.
measurement_type: IC50 (µM)

Solved entries (count: 2):
Suppose we examine the compound COc1ccccc1C1C2=C(N=c3s/c(=C\c4cccc(OCC(=O)O)c4)c(=O)n31)c1ccccc1CC2 (centres undefined) ; what IC50 value has been reported?
3.1

Suppose we examine the compound `CCCCn1c(C)c(C(=O)O)c(-c2cccc(N3CCN(c4ccc(NS(=O)(=O)c5ccc(N[C@H](CCN6CCC(O)CC6)CSc6ccccc6)c(S(=O)(=O)C(F)(F)F)c5)cc4)CC3)c2)c1-c1ccc(Cl)cc1` ; what IC50 value has been reported?
0.0782

(I) CCCCCCNC1=C2C(=NC1=O)c1cccc3c(Sc4ccc(N)cc4)ccc2c13
(II) N#CC1=C(NCCC(N)=O)c2ccc(SC3CCCCC3)c3cccc(c23)C1=O
Of I and II , whose reported IC50 is the larger number? Respond with the label that goes with your answer.
II
